method.description: Lipophilicity, log P of the compound
Format: physicochemical
test.context: octanol/water
metric: logP

{"chemical.structure": "C=CCN(CC)C(=O)[C@@]1(c2ccsc2)C[C@H]1CN", "recorded.value": 1.5}

###

method.description: Drug level in rat brain at 30 mg/kg, po at 4 hrs
Format: ADME, organism-based
Design: dose 30 mg/kg, route oral
test.context: read-out: Drug uptake

{"chemical.structure": "C=CCN(CC)C(=O)[C@@]1(c2ccsc2)C[C@H]1CN", "concentration at 4 h / ng/g": 15}

###

method.description: Tmax in rat at 10 mg/kg, po
Format: ADME, organism-based
Design: dose 10 mg/kg, route oral
test.context: in vivo

{"molecule": "CCN(CC)C(=O)[C@@]1(c2ccccc2)C[C@H]1CN [LEVOMILNACIPRAN]", "Tmax (min)": 18}
